These measurements were taken from paper PMC10039853.

Biological target: T1, hen egg lysozyme (Gallus gallus (hen egg white), UniProt P00698)
T1 construct: hen egg lysozyme (HEL), antigen of VHH D3-L11; also in the complex structure PDB 6JB8; also called HEL; antigen lysozyme; source: bought: Sigma-Aldrich, Cat No. L6876 (named for the ELISA)
T1 sequence (P00698 19-147): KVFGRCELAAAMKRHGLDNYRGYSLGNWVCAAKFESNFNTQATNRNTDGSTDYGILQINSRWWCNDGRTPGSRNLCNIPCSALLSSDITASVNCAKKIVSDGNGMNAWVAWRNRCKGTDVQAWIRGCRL
Test: SPR; Biacore T200; lysozyme immobilised on Sensor Chip CM5 by amine coupling to 200 RU; VHH injected 300 s, dissociation 600 s; running buffer PBST (PBS, 0.005% Tween 20); duplicate; 1:1 binding model
Details: both partners purified
Listed here: items and their measured fold decrease in affinity (KD) against wild type.

INPUT: # get_value(readout='fold decrease in affinity (KD) against wild type', item= D3-L11 A79N (VHH, as the VHH chain of m2 (D3-L11, PDB 6JB8) with the stated substitution; Second-round mutant; same construct as m2; also called N mutant; source: ExpiCHO, transient transfection, purified from supernatant (His Mag Sepharose excel); not shown: His6 (after a SAG tripeptide linker), C-terminal, kept) VHH: DVQLVESGGGSVQAGGSLRLSCAASGSTDSIEYMTWFRQAPGKAREGVAALYTHTGNTYYTDSVKGRFTISQDKAKNMNYLRMDSVKSEDTAIYTCGATRKYVPVRFALDQSSYDYWGQGTQVTVSS )
OUTPUT: < 10 fold

INPUT: Which fold decrease in affinity (KD) against wild type value is on record for D3-L11 A79C (VHH, as the VHH chain of m2 (D3-L11, PDB 6JB8) with the stated substitution; Second-round mutant; same construct as m2; also called C mutant; source: ExpiCHO, transient transfection, purified from supernatant (His Mag Sepharose excel); not shown: His6 (after a SAG tripeptide linker), C-terminal, kept) VHH: DVQLVESGGGSVQAGGSLRLSCAASGSTDSIEYMTWFRQAPGKAREGVAALYTHTGNTYYTDSVKGRFTISQDKAKNMCYLRMDSVKSEDTAIYTCGATRKYVPVRFALDQSSYDYWGQGTQVTVSS ?
OUTPUT: < 2 fold

INPUT: Can you look up the measured fold decrease in affinity (KD) against wild type of D3-L11 A79S (VHH, as the VHH chain of m2 (D3-L11, PDB 6JB8) with the stated substitution; Second-round mutant; same construct as m2; also called S mutant; source: ExpiCHO, transient transfection, purified from supernatant (His Mag Sepharose excel); not shown: His6 (after a SAG tripeptide linker), C-terminal, kept) VHH: DVQLVESGGGSVQAGGSLRLSCAASGSTDSIEYMTWFRQAPGKAREGVAALYTHTGNTYYTDSVKGRFTISQDKAKNMSYLRMDSVKSEDTAIYTCGATRKYVPVRFALDQSSYDYWGQGTQVTVSS for me?
OUTPUT: < 10 fold

INPUT: Which fold decrease in affinity (KD) against wild type reading was recorded for the binder D3-L11 A79R (VHH, as the VHH chain of m2 (D3-L11, PDB 6JB8) with the stated substitution; Second-round mutant; same construct as m2; also called R mutant; source: ExpiCHO, transient transfection, purified from supernatant (His Mag Sepharose excel); not shown: His6 (after a SAG tripeptide linker), C-terminal, kept) VHH: DVQLVESGGGSVQAGGSLRLSCAASGSTDSIEYMTWFRQAPGKAREGVAALYTHTGNTYYTDSVKGRFTISQDKAKNMRYLRMDSVKSEDTAIYTCGATRKYVPVRFALDQSSYDYWGQGTQVTVSS ?
OUTPUT: < 10 fold
